# Target or test system: α4β1 integrin (Homo sapiens, UniProt P05556+P13612)
# Sequence (P13612 34-1032): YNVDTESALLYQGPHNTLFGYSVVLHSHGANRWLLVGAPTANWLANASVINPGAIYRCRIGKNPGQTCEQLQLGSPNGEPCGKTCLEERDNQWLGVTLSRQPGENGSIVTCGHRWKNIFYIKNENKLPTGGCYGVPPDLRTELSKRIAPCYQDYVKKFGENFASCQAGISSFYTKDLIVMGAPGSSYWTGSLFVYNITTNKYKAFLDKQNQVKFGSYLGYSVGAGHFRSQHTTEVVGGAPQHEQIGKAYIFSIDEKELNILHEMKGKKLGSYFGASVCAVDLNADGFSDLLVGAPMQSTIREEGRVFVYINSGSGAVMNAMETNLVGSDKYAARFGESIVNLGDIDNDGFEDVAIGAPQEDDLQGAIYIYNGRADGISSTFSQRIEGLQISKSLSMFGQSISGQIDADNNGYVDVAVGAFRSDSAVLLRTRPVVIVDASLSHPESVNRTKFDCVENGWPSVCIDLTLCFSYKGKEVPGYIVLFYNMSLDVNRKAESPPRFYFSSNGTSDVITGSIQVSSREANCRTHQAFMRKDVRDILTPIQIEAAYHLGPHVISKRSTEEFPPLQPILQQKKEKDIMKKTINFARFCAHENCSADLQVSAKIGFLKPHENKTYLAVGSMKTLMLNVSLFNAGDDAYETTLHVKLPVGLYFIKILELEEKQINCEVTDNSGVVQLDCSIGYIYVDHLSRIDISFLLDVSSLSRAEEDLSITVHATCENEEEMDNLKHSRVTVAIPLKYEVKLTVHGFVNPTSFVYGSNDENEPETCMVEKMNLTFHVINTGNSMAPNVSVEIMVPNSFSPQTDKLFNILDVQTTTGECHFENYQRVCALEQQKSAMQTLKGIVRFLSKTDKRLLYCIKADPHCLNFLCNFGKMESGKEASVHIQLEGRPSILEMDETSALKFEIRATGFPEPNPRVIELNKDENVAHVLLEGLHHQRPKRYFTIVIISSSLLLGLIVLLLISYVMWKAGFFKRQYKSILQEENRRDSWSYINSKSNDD
# Sequence (P05556 21-798): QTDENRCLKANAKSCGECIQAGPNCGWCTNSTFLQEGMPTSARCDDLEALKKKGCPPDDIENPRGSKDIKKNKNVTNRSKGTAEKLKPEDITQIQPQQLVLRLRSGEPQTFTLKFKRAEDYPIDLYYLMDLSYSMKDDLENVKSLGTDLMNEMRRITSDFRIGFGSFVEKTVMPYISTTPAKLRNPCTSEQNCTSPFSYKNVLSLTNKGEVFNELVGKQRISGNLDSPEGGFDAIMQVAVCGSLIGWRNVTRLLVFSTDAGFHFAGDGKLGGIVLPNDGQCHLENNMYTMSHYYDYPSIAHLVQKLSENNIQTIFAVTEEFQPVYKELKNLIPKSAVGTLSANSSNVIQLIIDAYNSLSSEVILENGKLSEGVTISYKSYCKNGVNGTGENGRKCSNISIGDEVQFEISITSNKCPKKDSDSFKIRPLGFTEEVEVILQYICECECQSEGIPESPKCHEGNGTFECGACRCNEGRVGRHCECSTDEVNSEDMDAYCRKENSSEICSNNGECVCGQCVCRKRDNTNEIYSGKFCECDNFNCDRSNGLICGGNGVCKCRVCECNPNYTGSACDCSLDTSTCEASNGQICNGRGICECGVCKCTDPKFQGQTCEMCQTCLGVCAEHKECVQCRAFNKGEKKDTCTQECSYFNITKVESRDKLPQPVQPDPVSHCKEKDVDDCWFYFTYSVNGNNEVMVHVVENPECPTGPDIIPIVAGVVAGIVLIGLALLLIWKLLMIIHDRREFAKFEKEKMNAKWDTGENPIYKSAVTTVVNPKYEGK
# Experimental protocol: a4b1 IC50 (inhibition of α4β1 integrin; no method described)
Quick reference: IC50 of the listed items.

Cc1ccccc1Cc1ccc([C@H](CC(=O)O)NC(=O)Nc2c(O)cc(C)n(C)c2=O)s1 [Compound 2-15]    ≤ 20 nM

Req: Record Cc1cn(C)c(=O)c(NC(=O)NC(CC(=O)O)c2cccc(Cc3cccc(Cl)c3)c2)c1O (centres unmarked) [Compound 1-25] : what is its IC50 with α4β1 integrin (Homo sapiens, UniProt P05556+P13612)?
Resp: < 200 nM

Req: Record Cc1cn(C)c(=O)c(NC(=O)N[C@@H](CC(=O)O)c2cccc(Oc3ccccc3)c2)c1O [Compound 1-22] : what is its IC50 with α4β1 integrin (Homo sapiens, UniProt P05556+P13612)?
Resp: < 200 nM

Req: Record Cc1ccccc1Cc1cccc([C@H](CC(=O)O)NC(=O)Nc2c(O)cc(C)n(C)c2=O)c1 [Compound 2-14] : what is its IC50 with α4β1 integrin (Homo sapiens, UniProt P05556+P13612)?
Resp: < 20 nM

Req: Record Cn1ccc(O)c(NC(=O)N[C@@H](CC(=O)O)c2ccc(Cc3ccccc3)s2)c1=O [Compound 3-96] : what is its IC50 with α4β1 integrin (Homo sapiens, UniProt P05556+P13612)?
Resp: < 20 nM
